log10(Ki) for assorted compounds
# experimental.system: rat TAAR1 (Rattus norvegicus (Rat))
# protocol: Radioligand binding assay on rat TAAR1
# condition.summary: read-out: Ki (μM) rat; rat TAAR1, HEK-293 membranes; second value of cell mouse/rat
Field: value | Transform: log10 | Quantity: Ki | Unit: µM

# count of solved cases: 4
* CC(C)Cc1n[nH]c(C(=O)Nc2ccc([C@@H]3O[C@H]4CN[C@@H]3C4)cc2)c1F [Example 100] | -1.56
* O=C(Nc1ccc([C@@H]2O[C@H]3CN[C@@H]2C3)cc1)c1[nH]nc(C2CC2)c1F [Example 77] | -0.86
* CC(C)c1n[nH]c(C(=O)Nc2ccc([C@@H]3O[C@H]4CN[C@@H]3C4)cc2)c1F [Example 103] | -1.39
* CC(C)c1n[nH]c(C(=O)Nc2ccc([C@@H]3O[C@H]4CN[C@@H]3C4)cc2)c1Cl [Example 102] | -1.85

Now for a further compound.
Field log10(Ki) (rat TAAR1 (Rattus norvegicus (Rat))), entry CCCCNc1ccc([C@H]2O[C@@H]3CN[C@H]2C3)cc1 [Example 41] : 0.45

----------
# experimental.system: rat TAAR1 (Rattus norvegicus (Rat), UniProt Q923Y9)
# Sequence (Q923Y9 whole entry): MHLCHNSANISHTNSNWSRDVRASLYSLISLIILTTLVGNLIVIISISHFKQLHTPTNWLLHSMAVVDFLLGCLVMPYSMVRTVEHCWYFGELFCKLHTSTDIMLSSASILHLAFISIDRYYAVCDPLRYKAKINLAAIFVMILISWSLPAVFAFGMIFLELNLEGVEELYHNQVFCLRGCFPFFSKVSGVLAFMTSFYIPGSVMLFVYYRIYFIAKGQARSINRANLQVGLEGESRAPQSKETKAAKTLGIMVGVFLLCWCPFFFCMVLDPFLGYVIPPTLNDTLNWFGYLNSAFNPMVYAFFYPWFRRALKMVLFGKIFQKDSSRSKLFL
# protocol: Radioligand binding assay on rat TAAR1;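 further: membranes from HEK293 cells stably transfected with rat TAAR1, tritiated TAAR1 radioligand, 1 h incubation at 4 °C, nonspecific binding determined with excess unlabeled ligand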
Entries and their Ki
Please give a number only; it is taken to be in nM.

• O=C(Nc1cccc([C@@H]2O[C@H]3CN[C@@H]2C3)c1)c1ccc(Cl)cc1 [Example 2] = 79.4

Continue with the next compound.
O=C(Nc1ccc([C@@H]2O[C@H]3CN[C@@H]2C3)cc1)c1ccc(Cl)cc1 [Example 7] has a reported Ki of 106

----------
# experimental.system: mouse TAAR1 (Mus musculus (Mouse), UniProt Q923Y8)
# Sequence (Q923Y8 whole entry): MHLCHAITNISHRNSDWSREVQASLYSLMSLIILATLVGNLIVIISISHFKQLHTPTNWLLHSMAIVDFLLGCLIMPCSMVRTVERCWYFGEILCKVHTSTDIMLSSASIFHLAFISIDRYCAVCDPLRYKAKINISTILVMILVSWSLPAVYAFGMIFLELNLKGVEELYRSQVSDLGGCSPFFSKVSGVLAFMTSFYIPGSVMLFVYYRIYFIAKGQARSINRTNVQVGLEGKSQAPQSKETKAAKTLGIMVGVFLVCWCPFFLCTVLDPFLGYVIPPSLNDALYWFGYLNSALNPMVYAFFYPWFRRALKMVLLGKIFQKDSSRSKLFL
# protocol: Radioligand binding assay on mouse TAAR1
test.readout: pKi
On this scale, pKi is minus log10 of a concentration expressed in M (mol/L).

- O=C(Nc1ccc([C@H]2O[C@@H]3CN[C@H]2C3)cc1)c1ccc(OCC2CC2)cc1: 8.20
- FC(F)(F)c1ccc(Nc2ccc([C@H]3O[C@@H]4CN[C@H]3C4)cc2)nc1: 8.15

Attention now turns to another entry.
Lab book: pKi of `FC(F)(F)c1cnc(Nc2ccc([C@H]3O[C@@H]4CN[C@H]3C4)cc2)nc1` noted as 7.80

----------
# experimental.system: rat TAAR1 (Rattus norvegicus (Rat))
# protocol: Radioligand binding assay on rat TAAR1
test.readout: Ki

Worked cases, answers included:
- O=C(CCC(F)(F)F)Nc1ccc([C@@H]2O[C@H]3CN[C@@H]2C3)cc1 [Example 91]: > 1.45 µM
- O=C(NCc1ccc(C(F)(F)F)cc1)c1ccc([C@@H]2O[C@H]3CN[C@@H]2C3)cc1 [Example 96]: > 1.45 µM

Consider the additional molecule presented here.
// assay rat TAAR1 (Rattus norvegicus (Rat)), entry O=C(Nc1ccc(Cl)nc1)c1ccc([C@@H]2O[C@H]3CN[C@@H]2C3)cc1 [Example 94] , Ki value = > 1.45 µM

----------
# experimental.system: mouse TAAR1 (Mus musculus (Mouse))
# protocol: Radioligand binding assay on mouse TAAR1
test.readout: Ki (nM)
Lab book: enter the figure in nM, no units written.

- FC(F)(F)c1ccc(CNc2ccc([C@H]3O[C@@H]4CN[C@H]3C4)cc2)cc1: 6.9
- CC(C)c1cc(C(=O)Nc2ccc([C@@H]3O[C@H]4CN[C@@H]3C4)cc2)[nH]n1: 9.9
- CCOc1ccc(C(=O)Nc2ccc([C@H]3O[C@@H]4CN[C@H]3C4)cc2)cc1: 6.4
- Cc1c(C2CC2)n[nH]c1C(=O)Nc1ccc([C@@H]2O[C@H]3CN[C@@H]2C3)cc1: 6.6

The record that follows has no Ki shown yet.
mouse TAAR1 (Mus musculus (Mouse)) Ki of `FC(F)(F)COc1nccc(Nc2ccc([C@H]3O[C@@H]4CN[C@H]3C4)cc2)n1` is 7.7

----------
# experimental.system: rat TAAR1 (Rattus norvegicus (Rat))
# protocol: Radioligand binding assay on rat TAAR1
Catalogue of log10 of Ki values
Form field - Quantity: Ki; Unit: nM; Scale: log10

* Clc1ccc(CNc2ccc([C@H]3O[C@@H]4CN[C@H]3C4)cc2)cc1 | 2.22
* CC(C)Cc1cc(C(=O)Nc2ccc([C@@H]3O[C@H]4CN[C@@H]3C4)cc2)[nH]n1 | 1.91
* O=C(NCc1ccc(Cl)cc1)c1ccc([C@H]2O[C@@H]3CN[C@H]2C3)cc1 | 3.20

So, `O=C(Nc1ccc(Br)cc1)c1ccc([C@H]2O[C@@H]3CN[C@H]2C3)cc1` ? Its log10 of Ki was 1.70

The compound listed as `FC(F)(F)c1cnc(Nc2ccc([C@@H]3O[C@H]4CN[C@@H]3C4)cc2)cn1` has a reported log10 of Ki of 2.44

Data point: `Cc1n[nH]c(C(=O)Nc2ccc([C@H]3O[C@@H]4CN[C@H]3C4)cc2)c1Cl` ; log10 of Ki = 2.83

log10 of Ki reported for this compound `O=C(Nc1ccc([C@@H]2O[C@H]3CN[C@@H]2C3)cc1)c1ccc(OCC(F)(F)F)nc1` : 1.62

log10 of Ki for `O=C(Nc1ccc([C@H]2O[C@@H]3CN[C@H]2C3)cc1)c1cccc(Cl)c1` is 2.32

Please fill in: log10 of Ki reported for `Fc1ccccc1[C@@H]1O[C@H]2CN[C@@H]1C2` = 2.92

For reference, reported log10 of Ki for `O=C(Nc1ccc([C@H]2O[C@@H]3CN[C@H]2C3)cc1)c1ccc(C(F)(F)F)nc1` stands at 1.93

The compound listed as `O=C(Nc1ccc([C@@H]2O[C@H]3CN[C@@H]2C3)cc1)c1cccc(Cl)c1` shows log10 of Ki equal to 1.74

Looking up `c1ccc([C@@H]2O[C@H]3CN[C@@H]2C3)cc1` , I see its log10 of Ki listed as 2.91

// field: log10 of Ki; key: `O=C(Nc1ccc([C@H]2O[C@@H]3CN[C@H]2C3)cc1)c1ccnc(C(F)(F)F)n1` ; value = 4.00

Measured log10 of Ki of `O=C(COCCC(F)(F)F)Nc1ccc([C@@H]2O[C@H]3CN[C@@H]2C3)cc1` : 2.60

So for `O=C(Nc1ccc(Br)cc1)c1ccc([C@@H]2O[C@H]3CN[C@@H]2C3)cc1` , the logged log10 of Ki turned out to be 2.91
